Literature-derived pIC50 for 72 kDa type IV collagenase (Homo sapiens) follows.
Remember, pIC50 is on a log scale: it is -log10 of the molar concentration.

Q) Value lookup for pIC50; key = COC(=O)CNC(=O)[C@@H]1C[C@H](NC(=O)c2cc(OC)c(OC)c(OC)c2)CN1C(C)=O
A) 6.96

Q) Value lookup for pIC50; key = O=C(NO)[C@@H]1CSCN1S(=O)(=O)c1cccc2cccnc12
A) 6.15

Q) Value lookup for pIC50; key = COC(=O)[C@@H]1CC2(CN1S(=O)(=O)c1ccc([N+](=O)[O-])cc1)SCCS2
A) 4.11

Q) Value lookup for pIC50; key = O=C(/C=C/c1ccc(O)c(O)c1)Nc1cccc(F)c1
A) 5.74

Q) Value lookup for pIC50; key = COc1cc(C(=O)N[C@H](CCC(=O)O)C(=O)NCc2ccc(Br)cc2F)cc(OC)c1OC
A) 4.12

Q) Value lookup for pIC50; key = N[C@@H](Cc1ccccc1)C(=O)N[C@H]1CCC(=O)N(CC(=O)N[C@@H](CCC(=O)OCc2ccccc2)C(=O)OCc2ccccc2)C1=O
A) 3.57

Q) Value lookup for pIC50; key = CNC(=O)[C@@H]1Cc2ccc(cc2)OCCCC[C@H](C(=O)NO)[C@@H](CCCCOCc2ccccc2)C(=O)N1
A) 9.52

Q) Value lookup for pIC50; key = COc1cc(/C=N/NC(=O)[C@@H]2CC3(CN2S(=O)(=O)c2ccc(C)cc2)SCCS3)cc(OC)c1OC
A) 3.68

Q) Value lookup for pIC50; key = COc1ccc(-n2nnc(-c3ccc(S(=O)(=O)N[C@H](Cc4c[nH]c5ccccc45)C(=O)O)cc3)n2)cc1
A) 7.89

----------
Literature-derived log10(IC50) for 72 kDa type IV collagenase (Homo sapiens) follows.
Hey, these are logged values: log10 of IC50, nM being the unit before logging.

Q) For the record O=C(O)CCC(=O)c1ccc(C#CCO)cc1 , what value of log10(IC50) is listed for 72 kDa type IV collagenase (Homo sapiens)?
A) 4.19

Q) For the record CC(C)c1ccc(-c2ccc(S(=O)(=O)C(CCN3C(=O)c4ccccc4C3=O)C(=O)O)cc2)cc1 (stereo unspecified) , what value of log10(IC50) is listed for 72 kDa type IV collagenase (Homo sapiens)?
A) -0.01

Q) For the record O=C(NO)[C@@H]1CSCN1Cc1ccc(-c2ccccc2)cc1 , what value of log10(IC50) is listed for 72 kDa type IV collagenase (Homo sapiens)?
A) 5.52

Q) For the record O=C(OCc1cccc(Oc2ccccc2)c1)c1cccc(S)n1 , what value of log10(IC50) is listed for 72 kDa type IV collagenase (Homo sapiens)?
A) 4.66

Q) For the record COc1ccc(S(=O)(=O)N2CCCSC[C@@]2(C)C(=O)NO)cc1 , what value of log10(IC50) is listed for 72 kDa type IV collagenase (Homo sapiens)?
A) 0.62

Q) For the record COc1ccc(S(=O)(=O)N2CCCS(=O)(=O)C(C)(C)[C@@H]2C(=O)NO)cc1 , what value of log10(IC50) is listed for 72 kDa type IV collagenase (Homo sapiens)?
A) 0.89

Q) For the record CC#CCOc1ccc(S(=O)(=O)N[C@H](CCN2C(=O)c3ccccc3C2=O)C(=O)NO)cc1 , what value of log10(IC50) is listed for 72 kDa type IV collagenase (Homo sapiens)?
A) 0.62

Q) For the record Cc1ccccc1C1CCN(S(=O)(=O)CC2(C(=O)NO)CCN(C(=O)OC3COCC3(C)C)CC2)CC1 (stereo unspecified) , what value of log10(IC50) is listed for 72 kDa type IV collagenase (Homo sapiens)?
A) 2.76

Q) For the record CCOc1cccc(-c2ccc(S(=O)(=O)NC(CC#Cc3ccccc3)C(=O)O)cc2)c1 (stereo unspecified) , what value of log10(IC50) is listed for 72 kDa type IV collagenase (Homo sapiens)?
A) 3.38

Q) For the record COc1cc(C(=O)N[C@H](CCC(=O)O)C(=O)Nc2ccc(Br)cc2)cc(OC)c1OC , what value of log10(IC50) is listed for 72 kDa type IV collagenase (Homo sapiens)?
A) 4.74

Q) For the record CC(COc1ccc(-c2ccc(C#N)cc2)cc1)C(=O)NO (stereo unspecified) , what value of log10(IC50) is listed for 72 kDa type IV collagenase (Homo sapiens)?
A) 4.28

Q) For the record N#Cc1ccc(-c2ccc(OCCN(O)C=O)cc2)cc1 , what value of log10(IC50) is listed for 72 kDa type IV collagenase (Homo sapiens)?
A) 2.60

Q) For the record O=C(/C=C/c1ccc(O)c(O)c1)Nc1ccc(O)cc1 , what value of log10(IC50) is listed for 72 kDa type IV collagenase (Homo sapiens)?
A) 0.52

Q) For the record CCCCCCOC(=O)c1cccc(S)n1 , what value of log10(IC50) is listed for 72 kDa type IV collagenase (Homo sapiens)?
A) 4.93

Q) For the record CCCC(C)N(CC(=O)NO)C(=O)CN(CCCc1ccccc1)C(=O)Nc1ccc(Oc2ccccc2)cc1 (stereo in doubt; form 1) , what value of log10(IC50) is listed for 72 kDa type IV collagenase (Homo sapiens)?
A) 4.36

Q) For the record COc1ccc(C#Cc2ccc(S(=O)(=O)N[C@H](Cc3c[nH]c4ccccc34)C(=O)O)cc2[N+](=O)[O-])cc1 , what value of log10(IC50) is listed for 72 kDa type IV collagenase (Homo sapiens)?
A) 1.52

Q) For the record COC(=O)[C@@H]1C[C@H](N=[N+]=[N-])CN1C(=O)/C=C/c1ccc(OC)c(OC)c1 , what value of log10(IC50) is listed for 72 kDa type IV collagenase (Homo sapiens)?
A) 3.53

Q) For the record Cc1cccc(N2CCN(C(=O)C3CCN(c4ccc(S(=O)(=O)C5(C(=O)NO)CCOCC5)cc4)CC3)CC2)c1C , what value of log10(IC50) is listed for 72 kDa type IV collagenase (Homo sapiens)?
A) 3.78

----------
Literature-derived log10 of IC50 for 72 kDa type IV collagenase (Homo sapiens) follows.
Hey, these are logged values: log10 of IC50, µM being the unit before logging.

Q) Value lookup for log10 of IC50; key = NCCC[C@H](N)C(=O)NC[C@H](N)Cc1ccccc1
A) 2.34

Q) Value lookup for log10 of IC50; key = COC(=O)[C@H](Cc1ccc(OCCc2ccccc2)cc1)NS(=O)(=O)c1ccc(C)cc1
A) 0.80

Q) Value lookup for log10 of IC50; key = O=C(CN(CCCc1ccccc1)C(=O)CN(Cc1ccccc1)C(=O)Nc1ccc(Oc2ccccc2)cc1)NO
A) 1.63

Q) Value lookup for log10 of IC50; key = Cc1ccc(Oc2ccc(N(C[C@H](O)C(=O)NO)S(C)(=O)=O)cc2)cc1
A) -1.21

Q) Value lookup for log10 of IC50; key = NCC(=O)NC[C@H](N)Cc1ccccc1
A) 1.37

Q) Value lookup for log10 of IC50; key = Cc1ccc(S(=O)(=O)N2C[C@H](O)C[C@H]2C(=O)NO)cc1
A) -2.70

Q) Value lookup for log10 of IC50; key = COc1ccc(S(=O)(=O)N2CC(C)(C)C(CSCc3ccccc3)[C@@H]2C(=O)NO)cc1 (stereo not given in full)
A) -2.79

Q) Value lookup for log10 of IC50; key = O=C(O)[C@@H](Cc1ccccc1)NS(=O)(=O)c1ccc(Br)cc1
A) 0.85

Q) Value lookup for log10 of IC50; key = O=C(Oc1ccc2ccccc2c1)c1cccc(S)n1
A) 2.00

----------
Literature-derived log10 of IC50 for 72 kDa type IV collagenase (Homo sapiens) follows.
Hey, these are logged values: log10 of IC50, nM being the unit before logging.

Q) Value lookup for log10 of IC50; key = COC(=O)[C@@H]1C[C@@H](OS(=O)(=O)c2ccc(C)cc2)CN1S(=O)(=O)c1ccc(C)cc1
A) 0.85

Q) Value lookup for log10 of IC50; key = COC(=O)[C@@H]1CC2(CN1S(=O)(=O)c1ccc(C)cc1)OCCO2
A) 2.00

Q) Value lookup for log10 of IC50; key = CC(CCN1Cc2ccccc2C1)(C(=O)O)S(=O)(=O)c1ccc(-c2ccc(Cl)cc2)cc1 (stereo not given)
A) 3.49

Q) Value lookup for log10 of IC50; key = O=C(O)[C@@H](Cc1c[nH]c2ccccc12)NS(=O)(=O)c1ccc(-c2ccc(Cl)cc2)cc1
A) 0.76

Q) Value lookup for log10 of IC50; key = O=C(/C=C/c1cccc(O)c1)Nc1cccc(F)c1
A) 3.27

----------
Literature-derived IC50 for 72 kDa type IV collagenase (Homo sapiens) follows.
// boundary case: IC50 equal to 0.03 µM maps to 0.0; strictly smaller maps to 1.0

Q) Lab note: IC50 threshold 0.03 µM. Does this compound come in strictly under it? CC(C)[C@@H](NS(=O)(=O)c1ccc(-c2ccc(COc3ccc(C(=O)C4CCCCC4)cc3)cc2)cc1)C(=O)O
A) 1.0

Q) Lab note: IC50 threshold 0.03 µM. Does this compound come in strictly under it? COC(=O)CCCCCNC(=O)[C@H](Cc1ccccc1)NC(=O)Cn1c(=O)c(C)nc2ccccc21
A) 0.0

Q) Lab note: IC50 threshold 0.03 µM. Does this compound come in strictly under it? COc1ccccc1NC(=O)/C=C/c1ccc(O)c(O)c1
A) 1.0

Q) Lab note: IC50 threshold 0.03 µM. Does this compound come in strictly under it? C=C(F)C[C@H](C(=O)O)N(Cc1cccnc1)S(=O)(=O)c1ccc(OC)cc1
A) 0.0

Q) Lab note: IC50 threshold 0.03 µM. Does this compound come in strictly under it? COc1ccc(CNC(=O)CN(C(CCSCc2ccccc2)C(=O)NO)S(=O)(=O)c2ccc(OC)cc2)cc1 (centres undefined)
A) 1.0

Q) Lab note: IC50 threshold 0.03 µM. Does this compound come in strictly under it? O=CN(O)C(CCC(=O)N1CCOCC1)CS(=O)(=O)c1ccc(Oc2ccc(OC(F)(F)F)cc2)cc1 (centres undefined)
A) 1.0

Q) Lab note: IC50 threshold 0.03 µM. Does this compound come in strictly under it? CCCCCOC(=O)c1cccc(=O)[nH]1
A) 0.0

Q) Lab note: IC50 threshold 0.03 µM. Does this compound come in strictly under it? CC(=O)Nc1ccc2oc(C(=O)Nc3ccc(-c4ccc(S(=O)(=O)N[C@H](C(=O)O)C(C)C)cc4)cc3)cc2c1
A) 1.0

Q) Lab note: IC50 threshold 0.03 µM. Does this compound come in strictly under it? CC(C)ON([C@H](CCN)C(=O)NO)S(=O)(=O)c1ccc(-c2ccccc2)cc1
A) 0.0

Q) Lab note: IC50 threshold 0.03 µM. Does this compound come in strictly under it? O=C(O)[C@@H](Cc1c[nH]c2ccccc12)NS(=O)(=O)c1ccc2ccccc2c1
A) 0.0

Q) Lab note: IC50 threshold 0.03 µM. Does this compound come in strictly under it? CCC(C)ON(C(C(=O)NO)C(C)C)S(=O)(=O)c1ccc(OC)cc1 (centres undefined)
A) 0.0

Q) Lab note: IC50 threshold 0.03 µM. Does this compound come in strictly under it? COC(=O)[C@@H]1C[C@@H](OC(=O)c2ccccc2)CN1S(=O)(=O)c1ccccc1
A) 0.0

Q) Lab note: IC50 threshold 0.03 µM. Does this compound come in strictly under it? COC(=O)[C@@H]1CC2(CN1S(=O)(=O)c1ccc(C)cc1)SCCS2
A) 0.0

Q) Lab note: IC50 threshold 0.03 µM. Does this compound come in strictly under it? CC(C)OC(=O)c1cccc(=O)[nH]1
A) 0.0

Q) Lab note: IC50 threshold 0.03 µM. Does this compound come in strictly under it? O=C(O)[C@H]1[C@H](Cn2nnc3ccccc3c2=O)CC[C@@H]1Sc1ccc(-c2nc3ccccc3s2)cc1
A) 0.0

Q) Lab note: IC50 threshold 0.03 µM. Does this compound come in strictly under it? COC(=O)[C@@H]1C[C@H](NC(=O)c2cnccn2)CN1C(C)=O
A) 0.0

Q) Lab note: IC50 threshold 0.03 µM. Does this compound come in strictly under it? O=C(COc1ccc(Cl)cc1)NNC(=S)NCCCCC1CCCCC1
A) 0.0

Q) Lab note: IC50 threshold 0.03 µM. Does this compound come in strictly under it? Cc1ccc(NC(=O)CN2C(=O)CC[C@H](NC(=O)[C@@H](N)Cc3ccccc3)C2=O)c(C)c1
A) 0.0
